Experiment: Liquid stability comparative test (20 mg/mL in purified water, 40 °C, 24 hours, HPLC)
Type: physicochemical
Details: 20 mg/mL in purified water, initial time point
Where a name gives a salt, the structure may show the parent alone.
PROPERTY: Initial Purity (%)
Number only, in %; omit the unit.

The compound listed as Cc1nc2c(O[C@H]3CCOc4cc(F)cc(F)c43)cc(C(=O)N(C)C)cc2[nH]1 [Sulfate Salt] shows Initial Purity (%) equal to 99.89

The compound listed as Cc1nc2c(O[C@H]3CCOc4cc(F)cc(F)c43)cc(C(=O)N(C)C)cc2[nH]1 [Methanesulfonate Salt (Amorphous Form)] shows Initial Purity (%) equal to 99.90

The compound listed as Cc1nc2c(O[C@H]3CCOc4cc(F)cc(F)c43)cc(C(=O)N(C)C)cc2[nH]1 [Methanesulfonate Salt (Crystalline Form)] shows Initial Purity (%) equal to 99.95

The compound listed as Cc1nc2c(O[C@H]3CCOc4cc(F)cc(F)c43)cc(C(=O)N(C)C)cc2[nH]1 [Phosphate Salt] shows Initial Purity (%) equal to 99.97

###

Experiment: Solid-state accelerated stability test (40 ± 2 °C/RH 75 ± 5 %)
Conditions: 40 ± 2 °C / RH 75 ± 5 %, 1 month
Where a name gives a salt, the structure may show the parent alone.
PROPERTY: After 1 Month (%) Degradant
Number only, in %; omit the unit.

The compound listed as Cc1nc2c(O[C@H]3CCOc4cc(F)cc(F)c43)cc(C(=O)N(C)C)cc2[nH]1 [Malate Salt] shows After 1 Month (%) Degradant equal to 0.049

The compound listed as Cc1nc2c(O[C@H]3CCOc4cc(F)cc(F)c43)cc(C(=O)N(C)C)cc2[nH]1 [Phosphate Salt] shows After 1 Month (%) Degradant equal to 0.205

The compound listed as Cc1nc2c(O[C@H]3CCOc4cc(F)cc(F)c43)cc(C(=O)N(C)C)cc2[nH]1 [Maleate Salt] shows After 1 Month (%) Degradant equal to 0.083

The compound listed as Cc1nc2c(O[C@H]3CCOc4cc(F)cc(F)c43)cc(C(=O)N(C)C)cc2[nH]1 [Methanesulfonate Salt (Amorphous Form)] shows After 1 Month (%) Degradant equal to 1.124

The compound listed as Cc1nc2c(O[C@H]3CCOc4cc(F)cc(F)c43)cc(C(=O)N(C)C)cc2[nH]1 [Pidolate Salt] shows After 1 Month (%) Degradant equal to 0.003

###

Kindly supply the reported Initial Degradant (%) values for the records listed here.
Test: Liquid stability comparative test (20 mg/mL in purified water, 40 °C, 24 hours, HPLC)
Assay type: physicochemical
Conditions: degradant of Formula 4; 20 mg/mL in purified water, initial time point
Where a name gives a salt, the structure may show the parent alone.
Number only, in %; omit the unit.

The compound listed as Cc1nc2c(O[C@H]3CCOc4cc(F)cc(F)c43)cc(C(=O)N(C)C)cc2[nH]1 [Methanesulfonate Salt (Amorphous Form)] shows Initial Degradant (%) equal to 0.063

The compound listed as Cc1nc2c(O[C@H]3CCOc4cc(F)cc(F)c43)cc(C(=O)N(C)C)cc2[nH]1 [Phosphate Salt] shows Initial Degradant (%) equal to 0.010

The compound listed as Cc1nc2c(O[C@H]3CCOc4cc(F)cc(F)c43)cc(C(=O)N(C)C)cc2[nH]1 [Sulfate Salt] shows Initial Degradant (%) equal to 0.080

The compound listed as Cc1nc2c(O[C@H]3CCOc4cc(F)cc(F)c43)cc(C(=O)N(C)C)cc2[nH]1 [Methanesulfonate Salt (Crystalline Form)] shows Initial Degradant (%) equal to 0.028

###

Assay: Solid-state stress stability test (humidity 90 % RH)
Settings: 90 % RH, 1 month
Counter-ions that a name gives are not always drawn.
PROPERTY: After 1 Month (%) Total Related substances
Number only, in %; omit the unit.

The molecule listed as Cc1nc2c(O[C@H]3CCOc4cc(F)cc(F)c43)cc(C(=O)N(C)C)cc2[nH]1 [Hydrochloride Salt (Amorphous Form)] shows After 1 Month (%) Total Related substances equal to 0.335

The molecule listed as Cc1nc2c(O[C@H]3CCOc4cc(F)cc(F)c43)cc(C(=O)N(C)C)cc2[nH]1 [Sulfate Salt] shows After 1 Month (%) Total Related substances equal to 16.637

The molecule listed as Cc1nc2c(O[C@H]3CCOc4cc(F)cc(F)c43)cc(C(=O)N(C)C)cc2[nH]1 [Hydrobromide Salt] shows After 1 Month (%) Total Related substances equal to 3.922

The molecule listed as Cc1nc2c(O[C@H]3CCOc4cc(F)cc(F)c43)cc(C(=O)N(C)C)cc2[nH]1 [Hemisalicylate Salt] shows After 1 Month (%) Total Related substances equal to 1.759

###

Experiment: Photostability test, ultraviolet light (200 W·hr/m2) exposure
Conditions: Table 10, initial
Structures can show the parent of a compound that is named as a salt.
PROPERTY: Initial (%) Degradant
Number only, in %; omit the unit.

The molecule listed as Cc1nc2c(O[C@H]3CCOc4cc(F)cc(F)c43)cc(C(=O)N(C)C)cc2[nH]1 [Sulfate Salt] shows Initial (%) Degradant equal to 0.339

The molecule listed as Cc1nc2c(O[C@H]3CCOc4cc(F)cc(F)c43)cc(C(=O)N(C)C)cc2[nH]1 [Malate Salt] shows Initial (%) Degradant equal to 0.004

The molecule listed as Cc1nc2c(O[C@H]3CCOc4cc(F)cc(F)c43)cc(C(=O)N(C)C)cc2[nH]1 [Hydrobromide Salt] shows Initial (%) Degradant equal to 1.972

The molecule listed as Cc1nc2c(O[C@H]3CCOc4cc(F)cc(F)c43)cc(C(=O)N(C)C)cc2[nH]1 [Methanesulfonate Salt (Amorphous Form)] shows Initial (%) Degradant equal to 0.284

###

Experiment: Photostability test, ultraviolet light (200 W·hr/m2) exposure
Conditions: Table 10, initial
Where a name gives a salt, the structure may show the parent alone.
Tick y if Initial (%) Total Related substances is 0.2% or greater. Tick n if Initial (%) Total Related substances is less than 0.2%.

hey, is Initial (%) Total Related substances for this one >= 0.2%? Cc1nc2c(O[C@H]3CCOc4cc(F)cc(F)c43)cc(C(=O)N(C)C)cc2[nH]1 [Methanesulfonate Salt (Amorphous Form)]
y

hey, is Initial (%) Total Related substances for this one >= 0.2%? Cc1nc2c(O[C@H]3CCOc4cc(F)cc(F)c43)cc(C(=O)N(C)C)cc2[nH]1 [Hydrochloride Salt (Amorphous Form)]
y

hey, is Initial (%) Total Related substances for this one >= 0.2%? Cc1nc2c(O[C@H]3CCOc4cc(F)cc(F)c43)cc(C(=O)N(C)C)cc2[nH]1 [Hydrobromide Salt]
y

hey, is Initial (%) Total Related substances for this one >= 0.2%? Cc1nc2c(O[C@H]3CCOc4cc(F)cc(F)c43)cc(C(=O)N(C)C)cc2[nH]1 [Hemisalicylate Salt]
y

hey, is Initial (%) Total Related substances for this one >= 0.2%? Cc1nc2c(O[C@H]3CCOc4cc(F)cc(F)c43)cc(C(=O)N(C)C)cc2[nH]1 [Pidolate Salt]
n

hey, is Initial (%) Total Related substances for this one >= 0.2%? Cc1nc2c(O[C@H]3CCOc4cc(F)cc(F)c43)cc(C(=O)N(C)C)cc2[nH]1 [Maleate Salt]
y

###

Kindly supply the reported Initial (%) Degradant values for the records listed here.
Assay: Photostability test, ultraviolet light (200 W·hr/m2) exposure
Conditions: Table 10, initial
Structures can show the parent of a compound that is named as a salt.
Number only, in %; omit the unit.

The molecule listed as Cc1nc2c(O[C@H]3CCOc4cc(F)cc(F)c43)cc(C(=O)N(C)C)cc2[nH]1 [Phosphate Salt] shows Initial (%) Degradant equal to 0.085

The molecule listed as Cc1nc2c(O[C@H]3CCOc4cc(F)cc(F)c43)cc(C(=O)N(C)C)cc2[nH]1 [Maleate Salt] shows Initial (%) Degradant equal to 0.027

The molecule listed as Cc1nc2c(O[C@H]3CCOc4cc(F)cc(F)c43)cc(C(=O)N(C)C)cc2[nH]1 [Hemisalicylate Salt] shows Initial (%) Degradant equal to 0.001

The molecule listed as Cc1nc2c(O[C@H]3CCOc4cc(F)cc(F)c43)cc(C(=O)N(C)C)cc2[nH]1 [Methanesulfonate Salt (Crystalline Form)] shows Initial (%) Degradant equal to 0.122

The molecule listed as Cc1nc2c(O[C@H]3CCOc4cc(F)cc(F)c43)cc(C(=O)N(C)C)cc2[nH]1 [Pidolate Salt] shows Initial (%) Degradant equal to 0.001

###

Test: Liquid stability comparative test (20 mg/mL in purified water, 40 °C, 24 hours, HPLC)
Assay type: physicochemical
Conditions: 20 mg/mL in purified water, 40 °C, 24 hours
Where a name gives a salt, the structure may show the parent alone.
Kindly supply the reported After 24 hours Purity (%) values for the records listed here.
Number only, in %; omit the unit.

The compound listed as Cc1nc2c(O[C@H]3CCOc4cc(F)cc(F)c43)cc(C(=O)N(C)C)cc2[nH]1 [Methanesulfonate Salt (Crystalline Form)] shows After 24 hours Purity (%) equal to 99.47

The compound listed as Cc1nc2c(O[C@H]3CCOc4cc(F)cc(F)c43)cc(C(=O)N(C)C)cc2[nH]1 [Methanesulfonate Salt (Amorphous Form)] shows After 24 hours Purity (%) equal to 99.34

The compound listed as Cc1nc2c(O[C@H]3CCOc4cc(F)cc(F)c43)cc(C(=O)N(C)C)cc2[nH]1 [Hydrochloride Salt (Amorphous Form)] shows After 24 hours Purity (%) equal to 99.69

The compound listed as Cc1nc2c(O[C@H]3CCOc4cc(F)cc(F)c43)cc(C(=O)N(C)C)cc2[nH]1 [Sulfate Salt] shows After 24 hours Purity (%) equal to 93.95

These measurements were taken from patent EP4678639A1.
